Biological target: UniProt P36888
Sequence (P36888 27-993): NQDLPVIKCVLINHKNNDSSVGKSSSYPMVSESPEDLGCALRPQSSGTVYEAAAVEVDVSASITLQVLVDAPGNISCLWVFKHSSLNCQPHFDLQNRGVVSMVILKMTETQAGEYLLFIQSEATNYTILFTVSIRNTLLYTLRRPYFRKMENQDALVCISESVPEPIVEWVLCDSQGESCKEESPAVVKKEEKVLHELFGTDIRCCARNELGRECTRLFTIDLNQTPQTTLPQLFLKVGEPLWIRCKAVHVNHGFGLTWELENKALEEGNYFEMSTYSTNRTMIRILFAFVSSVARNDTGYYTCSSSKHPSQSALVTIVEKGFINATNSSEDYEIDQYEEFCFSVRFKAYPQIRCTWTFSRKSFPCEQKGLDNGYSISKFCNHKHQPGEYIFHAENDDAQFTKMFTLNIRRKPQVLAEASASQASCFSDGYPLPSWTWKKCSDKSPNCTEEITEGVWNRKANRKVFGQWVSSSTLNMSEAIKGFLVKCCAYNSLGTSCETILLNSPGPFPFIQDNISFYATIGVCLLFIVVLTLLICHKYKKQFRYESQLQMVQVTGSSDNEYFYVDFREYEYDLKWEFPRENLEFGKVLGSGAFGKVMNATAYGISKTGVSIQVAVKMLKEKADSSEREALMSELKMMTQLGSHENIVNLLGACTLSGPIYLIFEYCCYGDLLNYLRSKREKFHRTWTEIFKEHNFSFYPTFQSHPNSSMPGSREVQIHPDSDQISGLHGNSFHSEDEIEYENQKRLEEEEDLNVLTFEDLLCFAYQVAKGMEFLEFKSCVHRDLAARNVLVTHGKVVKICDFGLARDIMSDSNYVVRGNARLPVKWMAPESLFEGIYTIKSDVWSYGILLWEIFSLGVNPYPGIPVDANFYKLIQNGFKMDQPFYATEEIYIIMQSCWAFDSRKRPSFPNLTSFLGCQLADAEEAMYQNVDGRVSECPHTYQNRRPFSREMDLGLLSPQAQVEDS
pIC50: −log10 of the molar value.

smilesStructure | pIC50
CCc1nc(C(N)=O)c(Nc2ccc(N3CCC4(CCN(C)CC4)CC3)c(C)c2)nc1NC1CCOCC1.O=C(O)C(F)(F)F | 9.38

====

Assay: In vivo pharmacokinetic assay in rats
Set-up: species or system SD male rats
Conditions: male, SD, rat, plasma, iv, Injection, 1 mg/kg

compound | half-life, h
CCc1nc(C(N)=O)c(Nc2ccc(N3CCC(N4CCN(C)CC4)CC3)c(OC)c2)nc1NC1CCOCC1 [Compound B, reference compound] | 2.73

====

Tested on: MV-4-11 cells
Test: Assay of inhibiting proliferation of MV-4-11 in vitro (CellTiter-Glo, 3 days)
Type: cell-based, human
Settings: MV-4-11 cell proliferation
valueKind: IC50 (nM)

smilesStructure | valueKind | recordedValue
CCc1nc(C(N)=O)c(Nc2ccc(N3CCC4(CCN(C)CC4)CC3)c(C)c2)nc1NC1CCOCC1.O=C(O)C(F)(F)F | IC50 | 3.02

====

Test: In vivo pharmacokinetic assay in rats
Design: species or system SD male rats
Settings: male, SD, rat, plasma, Oral, 2.5 mg/kg, read-out: Tmax

compound | Tmax
CCc1nc(C(N)=O)c(Nc2ccc(N3CCC(N4CCN(C)CC4)CC3)c(OC)c2)nc1NC1CCOCC1 [Compound B, reference compound] | 6 h
